reported_endpoint: melting point

Examples from the recorded data:
1) O=C(N/N=C/c1ccc(O)cc1O)c1ccc(O)cc1 : 294 °C (dec.)
2) COc1cccc(OC)c1/C=N/NC(=O)c1ccc(O)cc1 : 214.5 to 216 °C
3) O=C(N/N=C/c1cccc(-c2ccccc2)c1O)c1ccc(O)cc1 (hydrate or solvate) : 215 to 218 °C

Now for the molecule whose melting point we want.
Q. Report melting point for "O=C(N/N=C/CCc1ccccc1)c1ccc(O)cc1" please.
A. 243.5 to 244 °C

* * *

system: laccase from Trametes versicolor; experiment: Laccase enzyme inhibition assay with syringaldazine as substrate; type: biochemical
reported_endpoint: inhibitory potency towards laccase

1) O=C(N/N=C/c1ccc(O)cc1O)c1ccc(O)cc1 : practically inactive
2) COc1ccc(C(=O)NN)cc1 [4b, reference compound] : no inhibitory potency
3) COc1cccc(OC)c1/C=N/NC(=O)c1ccc(O)cc1 : practically inactive
4) O=C(O)c1ccc(O)cc1 [4-HBA, 4-hydroxybenzoic acid, reference compound] : no inhibitory potency

* * *

target: laccase from Trametes versicolor; test: Laccase enzyme inhibition assay with syringaldazine as substrate; details: 25 °C, pH 5.3, syringaldazine substrate, 6.25% v/v organic co-solvent
pKi: −log10 of the molar value.
reported_endpoint: pKi

Worked cases, pKi given:
1) Cc1cc(/C=N/NC(=O)c2cccc(O)c2)c(O)c(C(C)(C)C)c1 [3g] : 4.49
2) O=C(N/N=C/c1ccccc1O)c1ccc(O)cc1 [1e] : 3.17
3) O=C(N/N=C/c1ccccc1)c1ccc(O)cc1 [1a] : 2.83

a = O=C(N/N=C/CCc1ccccc1)c1ccc(O)cc1 [1b]
b = O=C(N/N=C/c1ccc(O)cc1O)c1ccc(O)cc1 [2c]
Q. So which one has the bigger pKi here, a or b ? # answer = label of selected item
A. b

* * *

Listing of entries alongside the reported Ki.
target: laccase from Trametes versicolor; test: Laccase enzyme inhibition assay with syringaldazine as substrate; conditions: 25 °C, pH 5.3, syringaldazine substrate, 6.25% v/v organic co-solvent

1. O=C(O)c1ccc(O)cc1 [4-HBA, 4-hydroxybenzoic acid, reference compound] : ≥ 2400 µM
2. O=C(N/N=C/c1cc(Br)ccc1O)c1ccc(O)cc1 : ≥ 1000 µM
3. Cc1ccc(C(C)C)c(O)c1/C=N/NC(=O)c1ccc(O)cc1 : ≥ 1000 µM
4. Cc1ccc(/C=N/NC(=O)c2ccc(O)cc2)cc1 : 251 µM
5. Cc1cc(/C=N/NC(=O)c2ccc(O)cc2)c(O)c(C(C)(C)C)c1 : 26.4 µM
6. Cc1cc(/C=N/NC(=O)c2ccc(O)cc2)c(O)c(CO)c1 : ≥ 1000 µM
7. COc1cccc(/C=N/NC(=O)c2ccc(O)cc2)c1 : 416 µM
8. Cc1cc(CO)cc(/C=N/NC(=O)c2ccc(O)cc2)c1O : ≥ 1000 µM
9. COc1ccc(C(=O)NN)cc1 [4b, reference compound] : ≥ 2400 µM

Q. # Ki lookup, item "O=C(N/N=C/c1ccccc1S(=O)(=O)[O-])c1ccc(O)cc1.[Na+]"
A. ≥ 2400 µM

* * *

biological target: laccase from Trametes versicolor; test: Laccase enzyme inhibition assay with syringaldazine as substrate; details: 25 °C, pH 5.3, syringaldazine substrate, 6.25% v/v organic co-solvent
reported_endpoint: Ki (µM)

1) [N-]=[N+]=[N-].[Na+] [NaN3, sodium azide] : 2.72
2) CC(C)(C)c1cccc(/C=N/NC(=O)c2ccc(O)cc2)c1O : 24
3) O=C(N/N=C/c1cccc(-c2ccccc2)c1O)c1ccc(O)cc1 : 25.3
4) O.O=C(N/N=C/c1cccc(O)c1)c1ccc(O)cc1 : 2400
5) O=C(N/N=C/c1ccc(O)cc1)c1ccc(O)cc1 : 638

A = COc1cc(/C=N/NC(=O)c2ccc(O)cc2)ccc1O
B = CC(C)(C)c1cc(/C=N/NC(=O)c2ccc(O)cc2)c(O)c(C(C)(C)C)c1
C = COc1ccccc1/C=N/NC(=O)c1ccc(O)cc1
Q. Could you please order the items by Ki, going from the lowest number to the highest? Quick reminder: the answer is the labels in the order asked.
A. B, A, C
